Experiment: NCI Yeast Anticancer Drug Screen. Data for the rad50 strain (AID 155);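 further: 0% = growth of vehicle-only cultures of the same strain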
Conditions: S. cerevisiae rad50 strain growth inhibition; at 50.0 µM (retest, dose inferred, filed as 5.0); active compounds read high
This is part of a sample that, as a whole, favours compounds with a hit. Of some 79,000 tested, about 15% had one in any assay.
readout.name: growth inhibition (%)
Express the result in % but write the number alone.

Req: Using the record for Cc1cnc2cccc(Cl)c2c1Cl , report its growth inhibition.
Resp: 27

Req: Using the record for NC(=O)C1CCCN1C(=O)C1CCCN(Cc2ccc(CN3CCCC(C(=O)N4CCCC4C(N)=O)C3)cc2)C1 (configuration not stated) , report its growth inhibition.
Resp: -5

Req: Using the record for Cc1cc(Cl)c(O)c(C(=O)C(=O)C(O)c2ccc3c(c2)OCO3)c1 (configuration not stated) , report its growth inhibition.
Resp: 99

Req: Using the record for CN(C)C(=S)/N=c1\ssc(=S)n1-c1ccccc1 , report its growth inhibition.
Resp: 100

Req: Using the record for O=C(CCc1ccccc1)COC(=O)c1ccc([N+](=O)[O-])cc1 , report its growth inhibition.
Resp: -14

Req: Using the record for COc1cc(/C=C/C(=O)c2ccc(O)c(OC)c2)ccc1O , report its growth inhibition.
Resp: 38

Req: Using the record for COc1cc(C)cc2c(-c3c(O)cc(O)c4c3C[C@H](C)N[C@H]4C)cc(-c3cc(-c4c(O)cc(O)c5c4C[C@H](C)N[C@H]5C)c4cc(C)cc(OC)c4c3O)c(O)c12 , report its growth inhibition.
Resp: 27

Req: Using the record for S=C=NCCCCCCN=C=S , report its growth inhibition.
Resp: 99

Req: Using the record for O=[N+]([O-])c1cccc(C=Nc2ccccc2O)c1 , report its growth inhibition.
Resp: 34

Req: Using the record for C/C(=N/NC(=O)c1ccccc1S(N)(=O)=O)C(CN1CCCCC1)C(C1=C(O)C2C=CC=CC2OC1=O)c1ccccc1 (configuration not stated) , report its growth inhibition.
Resp: 41

Req: Using the record for C/C(=N\NC(=S)Nc1ccc(C)cc1)c1nc2ncccc2[nH]1 , report its growth inhibition.
Resp: 84

Req: Using the record for Cc1ccc([P+](CCN2C(=O)c3ccccc3C2=O)(c2ccc(C)cc2)c2ccc(C)cc2)cc1 , report its growth inhibition.
Resp: 98

Req: Using the record for CN(C)CCCSc1c2ccccc2nc2cccc([N+](=O)[O-])c12 , report its growth inhibition.
Resp: 10

Req: Using the record for N#C/C(=C/c1ccc([N+](=O)[O-])o1)c1ccccc1 , report its growth inhibition.
Resp: -7

Req: Using the record for COc1cc(C2C(Cl)C(=O)N2NC(=O)c2ccccc2O)cc(OC)c1OC (configuration not stated) , report its growth inhibition.
Resp: 77

Req: Using the record for Clc1cc(Cl)c2c(c1)nc(Cl)c1cc(Cl)ccc12 , report its growth inhibition.
Resp: 1

Req: Using the record for CCCCC#C[I+]c1ccccc1 , report its growth inhibition.
Resp: 66

Req: Using the record for COc1cc(/C=C/C(=O)c2ccc3ccccc3c2)cc(OC)c1OC , report its growth inhibition.
Resp: 40

Req: Using the record for O=C1CN=C(c2ccccc2)N(c2ccccc2)N1 , report its growth inhibition.
Resp: 96

Req: Using the record for O=C(N/C(=C/c1ccc(Cl)cc1Cl)c1nc2ccccc2s1)c1ccccc1 , report its growth inhibition.
Resp: 98

Req: Using the record for c1ccc2c(c1)N=c1ccccc1=P21c2ccccc2Nc2ccccc21 , report its growth inhibition.
Resp: 99

Req: Using the record for CCN(CC)CCNC(=O)c1ccc2c(c1O)C(=O)c1ccccc1C2=O , report its growth inhibition.
Resp: 54
